# reported Kd; entries follow
- target.or.test.system: human IL-6 (human, UniProt P05231 30-212)
- Sequence (P05231 30-212 limits assumed): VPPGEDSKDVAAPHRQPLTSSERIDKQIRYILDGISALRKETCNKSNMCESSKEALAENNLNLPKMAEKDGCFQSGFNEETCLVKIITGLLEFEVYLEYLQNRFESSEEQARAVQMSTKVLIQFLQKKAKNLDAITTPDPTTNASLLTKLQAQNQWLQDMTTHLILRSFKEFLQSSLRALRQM
- protocol.text: SPR (Biacore), supernatant antibody on Protein A chip, IL-6 flowed, 37 C
- Description: Antibodies were captured on a Protein A chip (GE) by injecting 1:20 cell supernatant dilutions at 10 μL/min for 60 seconds. […] The sensor chip was regenerated by a 60 seconds injection of 10 mM Glycine pH 1.7 at the flow rate of 50 μL/min. […] For this setup, 1 μg/mL of purified antibody was injected over a Protein A chip at 10 μL/min for 25 seconds. […] The sensor chip was regenerated by a 60 seconds injection of 10 mM Glycine pH 1.7 at flow rate of 50 μL/min. […]

binder	value.unit	Kd
anti-IL-6 antibody, heavy chain I51F, G66D / light chain M32L, M50D, N52S, M88Q (antibody, human IgG1, V domains shown, Human IgG1) VH: EVQLVESGGGLVQPGGSLRLSCAASGFTFSPFAMSWVRQAPGKGLEWVAKFSPGGSWTYYSDTVTDRFTFSLDTSKSTAYLQMNSLRAEDTAVYYCARQLWGYYALDIWGQGTLVTVSS VL: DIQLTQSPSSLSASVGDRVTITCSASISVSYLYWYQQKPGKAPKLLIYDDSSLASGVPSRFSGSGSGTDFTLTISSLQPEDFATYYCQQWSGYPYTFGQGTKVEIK	pM	4450
anti-IL-6 antibody, heavy chain I51K, G66D / light chain M32L, M50D, N52S, M88Q (antibody, human IgG1, V domains shown, Human IgG1) VH: EVQLVESGGGLVQPGGSLRLSCAASGFTFSPFAMSWVRQAPGKGLEWVAKKSPGGSWTYYSDTVTDRFTFSLDTSKSTAYLQMNSLRAEDTAVYYCARQLWGYYALDIWGQGTLVTVSS VL: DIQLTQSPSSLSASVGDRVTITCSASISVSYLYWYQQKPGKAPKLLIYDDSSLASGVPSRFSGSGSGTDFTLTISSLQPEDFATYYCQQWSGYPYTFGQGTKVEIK	pM	349
anti-IL-6 antibody, heavy chain S35E, G66D / light chain M32L, M50D, N52S, M88Q (antibody, human IgG1, V domains shown, Human IgG1) VH: EVQLVESGGGLVQPGGSLRLSCAASGFTFSPFAMEWVRQAPGKGLEWVAKISPGGSWTYYSDTVTDRFTFSLDTSKSTAYLQMNSLRAEDTAVYYCARQLWGYYALDIWGQGTLVTVSS VL: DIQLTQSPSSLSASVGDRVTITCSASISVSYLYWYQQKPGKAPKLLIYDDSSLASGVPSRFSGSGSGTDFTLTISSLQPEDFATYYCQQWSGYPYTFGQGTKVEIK	pM	867
